- study_system: ATP-binding cassette sub-family B member 6 (Homo sapiens)
- assay_details: ABCB6 transporter inhibitors, primary screen, K562-ABCB6 cells, flow cytometry, MLPCN library (AID 602162);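 also: signal is porphyrin accumulated inside mitochondria; 100% equals median channel fluorescence of DMSO control wells; lower ratio means ABCB6 inhibition with less porphyrin fluorescence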
- test_context: K562-ABCB6 porphyrin accumulation, 1 h, at 10 µM, hits give low values
About 690 (0.19%) of roughly 360,000 compounds were called active. The entries come from a sample that favours actives as a whole.
Entries annotated with measured fluorescence ratio to DMSO

Guide cases for fluorescence ratio to DMSO, answers given:
compound	measurement
O=C(c1ccc(Cl)cc1)c1cnc(Nc2ccccc2)s1	70% (active)
O=C(CSc1nnc(-c2cccnc2)n1CCc1ccccc1)NCc1ccccc1	110% (inactive)
COc1ccc(CN2C(=O)CC(Cc3ccc(C)cc3)C2=O)cc1OC (centres undefined)	97% (inactive)
COc1ccc(OC)c(C(=O)NC(CC(N)=O)c2ccc(N3CCC(N4CCCCC4)CC3)c([N+](=O)[O-])c2)c1 (centres undefined)	92% (inactive)

Query string: Assign fluorescence ratio to DMSO to the following record: CC(=O)N1CCc2cc(S(=O)(=O)NC3CCCCC3)ccc21
Result string: 97% (inactive)

Query string: Assign fluorescence ratio to DMSO to the following record: COc1ccc(CCNS(=O)(=O)c2ccc(Cl)s2)cc1OC
Result string: 88% (inactive)

Query string: Assign fluorescence ratio to DMSO to the following record: Cc1cccc(C(=O)NCc2nnc(SC(C)C(=O)Nc3nnc(C)s3)n2C)c1 (centres undefined)
Result string: 101% (inactive)

Query string: Assign fluorescence ratio to DMSO to the following record: OCCC1CN(Cc2ccc(Oc3ncccn3)cc2)CCN1CCc1ccccc1 (centres undefined)
Result string: 101% (inactive)

Query string: Assign fluorescence ratio to DMSO to the following record: CCC(=O)N1CCCC1(C)C(=O)Nc1ccc2c(c1)CCN2C(C)=O (centres undefined)
Result string: 72% (active)

Query string: Assign fluorescence ratio to DMSO to the following record: CCCNS(=O)(=O)c1ccc2c(c1)CCCN2C(C)=O
Result string: 75% (inactive)

Query string: Assign fluorescence ratio to DMSO to the following record: COc1ccc(CCNS(=O)(=O)c2ccc(F)cc2)cc1OC
Result string: 62% (active)

Query string: Assign fluorescence ratio to DMSO to the following record: C/C(CCc1ccccc1)=N\NC(=O)c1ccc(CN2CCOCC2)cc1
Result string: 97% (inactive)

Query string: Assign fluorescence ratio to DMSO to the following record: CCCn1c(N)c(C(=O)CSc2nnc(-c3cccnc3)n2-c2ccc(C)cc2C)c(=O)[nH]c1=O
Result string: 101% (inactive)

Query string: Assign fluorescence ratio to DMSO to the following record: O=S(=O)(NCCS(=O)(=O)N1CCN(c2ccccc2)CC1)c1ccc(F)cc1
Result string: 95% (inactive)

Query string: Assign fluorescence ratio to DMSO to the following record: C[C@]12CCC(=O)C=C1C=CC1C2CC[C@@]2(C)C1CC[C@@]21CCC(=O)O1 (some centres undefined)
Result string: 98% (inactive)
